system: Klebsiella pneumoniae; test: Antibacterial activity against Klebsiella pneumoniae assessed as reduction in bacterial growth measured after 24 hrs by two-fold serial dilution method; type: functional
List of MIC values.

CHEM_SMILES | REPORTED_PROPERTY | RESULT
O=C(NCCc1nc2ccccc2[nH]1)c1ccc2c(c1)OCCCO2 | MIC | > 100 µg/mL
O=C(c1ccc2c(c1)OCCCO2)N1CCN(CCO)CC1 | MIC | > 100 µg/mL

## Task Need MIC, item COc1ccc(NC(=O)c2ccc3c(c2)OCCCO3)c2ncccc12
## Result > 100 µg/mL

====

test system: Streptococcus pneumoniae; assay: Antibacterial activity against Streptococcus pneumoniae assessed as reduction in bacterial growth measured after 24 hrs by two-fold serial dilution method; type: functional
REPORTED_PROPERTY: MIC (µg/mL)

CHEM_SMILES | NUMBER
O=C(c1ccc2c(c1)OCCCO2)N1CCCCC1 | 25
Cc1ccc2cccc(NC(=O)c3ccc4c(c3)OCCCO4)c2n1 | 25
O=C(Nc1cccc2cccnc12)c1ccc2c(c1)OCCCO2 | 25
O=C(Nc1cc(Cl)cc2cccnc12)c1ccc2c(c1)OCCCO2 | 12.5
O=C(Nc1ccc2cc[nH]c2c1)c1ccc2c(c1)OCCCO2 | 12.5

I. O=C(Nc1cccc2ncccc12)c1ccc2c(c1)OCCCO2
II. CCOC(=O)c1c(NC(=O)c2ccc3c(c2)OCCCO3)sc2c1CCCC2
## Task Lab note: record which item had the higher MIC, I or II . Give the label of your selection.
## Result II

P. CCOC(=O)c1cccnc1NC(=O)c1ccc2c(c1)OCCCO2
Q. COc1ccc(NC(=O)c2ccc3c(c2)OCCCO3)c2ncccc12
## Task Dear colleague, could you let me know whether P or Q has the lower recorded MIC? Thanks. Please indicate the selected item by its label.
## Result P
